Cited source: patent US20180251563A1

Form field: ELISA ratio (target to background) (one value per entry).
# TARGET OF ASSAY: T1, PD-L1-Fc (UniProt Q9NZQ7 19-238)
# T1 construct: purified recombinant target-Fc protein; also called FC-PD-L1; not shown: Fc
# T1 sequence (Q9NZQ7 19-238 limits assumed): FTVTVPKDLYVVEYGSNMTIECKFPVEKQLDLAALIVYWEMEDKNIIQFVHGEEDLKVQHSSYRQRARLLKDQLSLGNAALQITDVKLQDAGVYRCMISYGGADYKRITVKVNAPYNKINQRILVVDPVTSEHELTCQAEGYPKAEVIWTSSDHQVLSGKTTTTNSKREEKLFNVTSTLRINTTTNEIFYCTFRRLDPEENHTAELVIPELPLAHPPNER
# PROCEDURE DETAILS: phage ELISA, target-Fc against non-specific control
Please respond with the number in ratio and leave the unit unwritten.

Solved cases (3 shown):
> print(dat)
                                     binder  assay.result
1  SEQ ID NO 40 (designed binder) MGSWYEFQNRLHAIHERLNALGGSEAELAAFEKEIAAFESELQAYKGKGNPEVELLRDDAAFIRHFLQAYRHN          6.34
2  SEQ ID NO 43 (designed binder) MGSWYEFNHRLDAISKRLNALGGSEAELAAFEKEIAAFESELQAYKGKGNPEVEELRGDAAFIRHFLQAYRHN          2.98
3  SEQ ID NO 41 (designed binder) MGSWFEFQDRLTAINERLSALGGSEAELAAFEKEIAAFESELQAYKGKGNPEVETLRSDAAFIRRFLQAYRHN          6.01

Moving on to another binder below.
Task: I am curious: what ELISA ratio (target to background) value has been reported for SEQ ID NO 44 (designed binder) MGSWFEFENRLHAIVHRLGALGGSEAELAAFEKEIAAFESELQAYKGKGNPEVETLRADAAFIRHYLQAYRHN ?
Result: 2.76
